Biological target: human TREX2 (residues M44-A279) (Homo sapiens, UniProt Q9BQ50)
Construct: human TREX2 (residues M44-A279, expressed in E. coli); His-Tev (His tag with TEV protease site) (N)
Sequence (Q9BQ50 whole entry, the tested form may be a part): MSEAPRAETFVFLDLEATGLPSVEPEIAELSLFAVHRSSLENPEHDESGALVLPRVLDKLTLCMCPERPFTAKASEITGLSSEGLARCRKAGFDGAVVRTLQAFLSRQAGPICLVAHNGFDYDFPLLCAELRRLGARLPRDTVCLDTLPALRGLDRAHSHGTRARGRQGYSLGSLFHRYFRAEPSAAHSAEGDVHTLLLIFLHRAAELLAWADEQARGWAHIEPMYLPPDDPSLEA
Assay: TREX2 Biochemical Assay (fluorescence assay, degradation of dsDNA substrate)
Details: 2.5 nM TREX2, 60 nM dsDNA substrate, 25 minutes at room temperature; read-out: hTREX2 EC50
Procedure: Degradation of the dsDNA liberates free fluorophore to produce a fluorescent signal. […] After a 5-minute incubation at room temperature, plates were read in a laser sourced Envision (Perkin-Elmer), measuring fluorescence at 615 nm following excitation w/570 nm light. […]
pEC50: −log10 of the molar value.
Experimental readout: pEC50

Worked cases, answers included:
O=C(c1cccc(F)c1)N(CCc1ccc(Cl)cc1Cl)Cc1cccnc1 [Compound 133] :: < 4.00
O=C(c1cccc(F)c1)N(Cc1cccnc1)Cc1ccccc1Cl [Compound 139] :: < 4.00
O=C(O)c1cc(CO)c(CN(Cc2cccc(Cl)c2Cl)C(=O)c2cc(F)cc(F)c2)cn1 [Compound 206] :: 4.00 to 5.00
N#Cc1ccc(C(=O)N(Cc2cccnc2)Cc2ccc(Cl)cc2Cl)cc1 [Compound 103] :: < 4.00
O=C(c1cccc(F)c1)N(Cc1ccccc1)Cc1ccc(Cl)cc1Cl [Compound 96] :: < 4.00

Turning now to a further compound:
Value of measured pEC50 for the entry O=C(c1cc(F)cc(F)c1)N(Cc1ccc(CCO)nc1)Cc1ccc(Cl)cc1Cl [Compound 218] : 4.00 to 5.00
